Origin of measurements: patent US8575186B2

- System under test: human 5-HT6 receptor (Homo sapiens (Human), UniProt P50406)
- Sequence (P50406 whole entry): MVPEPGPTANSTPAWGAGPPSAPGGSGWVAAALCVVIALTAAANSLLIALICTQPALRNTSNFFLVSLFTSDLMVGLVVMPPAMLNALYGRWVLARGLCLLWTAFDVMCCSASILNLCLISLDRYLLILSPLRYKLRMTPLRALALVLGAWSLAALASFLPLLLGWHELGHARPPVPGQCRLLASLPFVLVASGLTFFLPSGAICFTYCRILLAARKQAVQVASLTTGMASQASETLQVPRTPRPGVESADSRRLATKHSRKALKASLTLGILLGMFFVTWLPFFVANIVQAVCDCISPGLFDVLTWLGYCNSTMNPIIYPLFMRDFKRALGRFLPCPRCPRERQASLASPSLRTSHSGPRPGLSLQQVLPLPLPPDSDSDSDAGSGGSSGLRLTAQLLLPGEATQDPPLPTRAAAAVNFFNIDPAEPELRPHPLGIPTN
- Assay details: radioligand binding assay (SPA format), [N-methyl-3H]-LSD
- Reported conditions: read-out: human 5HT6 Ki; human 5-HT6 receptor membranes, 10 nM [3H]-LSD
pKi: −log10 of the molar value.
Kind request: treat 8 as inclusive, so pKi at 8 or higher is Satisfied, anything lower is Not satisfied.

Exercise: Decide: pKi of Cn1c2c(c3cc(S(=O)(=O)c4ccc5sccc5c4)ccc31)C1CCC(C2)N1 (stereo not shown) [Example 168] >= 8?
Solution: Satisfied

Exercise: Moving on to Cn1c2c(c3cc(S(=O)(=O)c4ccc5occc5c4)ccc31)C1CCC(C2)N1 (stereo not shown)
Solution: Not satisfied

Exercise: Moving on to Cn1c2c(c3cc(S(=O)(=O)c4ccccc4F)cc(O)c31)C1CCC(C2)N1 (stereo not shown) [Example 211]
Solution: Satisfied

Exercise: Moving on to CC(C)n1c2c(c3cc(S(=O)(=O)c4ccccc4)ccc31)C1CCC(C2)N1 (stereo not shown) [Example 182]
Solution: Not satisfied

Exercise: Moving on to Cn1c2c(c3cc(S(=O)(=O)c4ccc5c(ccn5CCO)c4)ccc31)C1CCC(C2)N1 (stereo not shown)
Solution: Not satisfied

###

Task for the reader: assign each of the following compounds its reported Ki.
- System under test: human 5-HT6 receptor (Homo sapiens (Human), UniProt P50406)
- Assay details: radioligand binding assay (SPA format), [N-methyl-3H]-LSD
- Reported conditions: read-out: human 5HT6 Ki; human 5-HT6 receptor membranes, 10 nM [3H]-LSD
Counter-ions that a name gives are not always drawn.
Return type: number; implicit unit nM.

Exercise: Item under review: CN1C2CCC1c1c(n(C)c3ccc(S(=O)(=O)c4ccc5[nH]ccc5c4)cc13)C2 (centres unmarked) [Example 184] . Reported Ki?
Solution: 0.35

Exercise: Moving on to Cl.O=S(=O)(c1ccccc1)c1ccc2c(c1)c1c(n2CCO)CC2CCC1N2 (centres unmarked) [Example 89, hydrochloride]
Solution: 432

Exercise: Moving on to CCN1C2CCC1c1c(n(C)c3ccc(S(=O)(=O)c4ccc5[nH]ccc5c4)cc13)C2 (centres unmarked) [Example 186]
Solution: 0.77

Exercise: Moving on to Cc1cccc(S(=O)(=O)c2ccc3c(c2)c2c(n3C)CC3CCC2N3)c1.Cl (centres unmarked) [Example 37, hydrochloride]
Solution: 3.7

Exercise: Moving on to Cn1c2c(c3cc(S(=O)(=O)c4cccc5cnccc45)ccc31)C1CCC(C2)N1 (centres unmarked)
Solution: 22

Exercise: Moving on to CNc1cccc(S(=O)(=O)c2ccc3c(c2)c2c(n3C)CC3CCC2N3)c1.Cl (centres unmarked) [Example 46, hydrochloride]
Solution: 6.5

Exercise: Moving on to COc1cc(S(=O)(=O)c2cccc(Cl)c2)cc2c3c(n(C)c12)CC1CCC3N1C (centres unmarked) [Example 225]
Solution: 0.53

Exercise: Moving on to Cl.Cn1c2c(c3cc(S(=O)(=O)c4cccc(N)c4)ccc31)C1CCC(C2)N1 (centres unmarked) [Example 44, hydrochloride]
Solution: 6.3

Exercise: Moving on to Cl.Cn1c2c(c3cc(S(=O)(=O)c4cccc(F)c4)ccc31)C1CCC(C2)N1 (centres unmarked) [Example 35, hydrochloride]
Solution: 4.2

Exercise: Moving on to CN1C2CCC1c1c(n(C)c3ccc(S(=O)(=O)c4ccc5[nH]ccc5c4)cc13)C2 (centres unmarked) [Example 134]
Solution: 0.26

Exercise: Moving on to Cn1c2c(c3cc(S(=O)(=O)c4cccc5cc[nH]c45)ccc31)C1CCC(C2)N1 (centres unmarked)
Solution: 4.5

Exercise: Moving on to Cl.Cn1c2c(c3cc(S(=O)(=O)c4ccccc4)cc(F)c31)C1CCC(C2)N1 (centres unmarked) [Example 81, hydrochloride]
Solution: 13

Exercise: Moving on to Cl.Cn1c2c(c3ccc(S(=O)(=O)c4ccccc4)cc31)C1CCC(C2)N1 (centres unmarked) [Example 91, hydrochloride]
Solution: 115

Exercise: Moving on to Cc1cc(S(=O)(=O)c2csc3ccccc23)cc2c3c(n(C)c12)CC1CCC3N1 (centres unmarked)
Solution: 0.29

Exercise: Moving on to Cn1c2c(c3cc(S(=O)(=O)c4ccccc4Cl)ccc31)C1CCC(C2)N1 (centres unmarked)
Solution: 4.8

Exercise: Moving on to Cl.Cn1c2c(c3cc(S(=O)(=O)c4cccc5ccccc45)ccc31)C1CCC(C2)N1 (centres unmarked) [Example 49, hydrochloride]
Solution: 1.4

Exercise: Moving on to Cn1c2c(c3cc(S(=O)(=O)c4ccc(C#N)cc4)ccc31)C1CCC(C2)N1 (centres unmarked) [Example 177]
Solution: 747

Exercise: Moving on to CCOc1cc(S(=O)(=O)c2ccccc2)cc2c3c(n(C)c12)CC1CCC3N1 (centres unmarked) [Example 235]
Solution: 0.42

Exercise: Moving on to Cn1c2c(c3cc(S(=O)(=O)c4ccccc4O)ccc31)C1CCC(C2)N1 (centres unmarked)
Solution: 100

Exercise: Moving on to CN(C)Cc1ccc(S(=O)(=O)c2ccc3c(c2)c2c(n3C)CC3CCC2N3)cc1 (centres unmarked) [Example 34, dihydrochloride]
Solution: 4.8

Exercise: Moving on to COc1cccc(S(=O)(=O)c2ccc3c(c2)c2c(n3C)CC3CCC2N3)c1.Cl (centres unmarked) [Example 41, hydrochloride]
Solution: 17

Exercise: Moving on to Cn1c2c(c3cc(S(=O)(=O)c4cn(-c5ccccc5)c5ccccc45)ccc31)C1CCC(C2)N1 (centres unmarked)
Solution: 9.3

Exercise: Moving on to Cn1c2c(c3cc(S(=O)(=O)c4ccccc4)ccc31)C1CCCC(C2)N1 (centres unmarked) [Example 92, hydrochloride]
Solution: 150

Exercise: Moving on to Cn1c2c(c3cc(S(=O)(=O)c4ccc(C#N)cc4)ccc31)C1CCC(C2)N1 (centres unmarked) [Example 178]
Solution: 454

Exercise: Moving on to COc1cc(S(=O)(=O)c2cncc3ccccc23)cc2c3c(n(C)c12)CC1CCC3N1 (centres unmarked) [Example 232]
Solution: 9.6

Exercise: Moving on to Cn1c2c(c3cc(S(=O)(=O)c4cn(Cc5ccccc5)c5ccccc45)ccc31)C1CCC(C2)N1 (centres unmarked)
Solution: 0.71
